biological target: Beta-lactamase (Escherichia coli (strain K12)); test: Cell Free Inhibition Assay; conditions: pH 7; 37 °C
Sequence (P00811 whole entry): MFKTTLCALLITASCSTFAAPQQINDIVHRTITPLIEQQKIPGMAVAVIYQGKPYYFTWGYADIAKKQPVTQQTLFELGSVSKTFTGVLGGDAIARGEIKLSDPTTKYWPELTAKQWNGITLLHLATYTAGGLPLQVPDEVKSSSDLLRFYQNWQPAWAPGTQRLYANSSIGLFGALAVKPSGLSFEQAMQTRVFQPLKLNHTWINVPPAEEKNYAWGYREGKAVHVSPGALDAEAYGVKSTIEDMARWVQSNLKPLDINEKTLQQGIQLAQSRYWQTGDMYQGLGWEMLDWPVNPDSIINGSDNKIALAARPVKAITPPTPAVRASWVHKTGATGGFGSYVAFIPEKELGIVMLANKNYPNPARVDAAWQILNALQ
READOUT_TYPE: pIC50
Answers are plain numbers, as −log10 of the molar value.

- C=CCC(C=O)=C1O[C@@H]2CC(=O)N2C1C(=O)OC (some centres undefined): 6.03
- COC(=O)C(CCCc1ccccc1)=C1O[C@@H]2CC(=O)N2C1C(=O)OC (some centres undefined): 5.27
- C=CCC(C(=O)O)=C1O[C@@H]2CC(=O)N2C1C(=O)OCc1ccccc1 (some centres undefined): 5.30

Now for a further compound.
Ask | Param item = O=C(O)C(CC=CCN(Cc1ccccc1)C(=O)OCc1ccccc1)=C1O[C@@H]2CC(=O)N2C1C(=O)OCc1ccccc1 (some centres undefined) ; retrieve measured pIC50.
Reply | 5.35
